details: buffer; pH 7.4; 200.0 µM
assay endpoint: solubility kinetic (µg/mL)
One number for each entry, in µg/mL.

Examples with answers:
{"columns": ["molecule", "unit name", "solubility kinetic"],
 "data": [
  ["CC(C)[C@H](NC(=O)c1ccccc1F)C(=O)NC1CCCCCCC1", "µg/mL", 7.5],
  ["Cc1cc(C(=O)Nc2ccc(S(=O)(=O)N3CCCC3)cc2)no1", "µg/mL", 2.2],
  ["CC(C)COc1ccc(C(=O)OCC(=O)NCc2cccs2)cc1", "µg/mL", 1.1],
  ["COc1ccc(OCC(=O)Nc2ccc(S(=O)(=O)N(C)c3ccccc3)cc2)cc1", "µg/mL", 1.8]
]}

Could you tell me solubility kinetic for each of these molecules? They are listed below.
1. CC(C)C(NC(=O)c1ccco1)C(=O)NC1CCCCCC1 (configuration not stated)
2. Cc1cccc(NC(=O)COC(=O)c2cccs2)c1C
3. NC(=O)COc1ccc(NS(=O)(=O)Cc2ccccc2)cc1
4. CC1(C)Cc2cccc(C(=O)Nc3ccc(Cl)cc3)c2O1
5. O=S1(=O)N=C(N2CCCC2)c2ccccc21
6. CN(C)S(=O)(=O)c1cccc(NC(=O)c2ccc(NS(=O)(=O)c3cccs3)cc2)c1
7. COC(=O)C1=C(C)NC(=O)NC1c1ccco1 (configuration not stated)

37.8
1.8
46.1
2.4
31.4
59.5
27.8

Could you tell me solubility kinetic for each of these molecules? They are listed below.
1. CCC(=Nc1cccc(C(F)(F)F)c1)c1c(O)n(C)c(=O)n(C)c1=O
2. CCC1(CC)Cc2ccccc2-c2nc(CN(C)C)[nH]c(=O)c21
3. CN(c1ccc(C(=O)N2CCCCC2)cc1)S(=O)(=O)c1cccs1
4. CCN(CC(=O)Nc1ccc2c(c1)OCCO2)CC(=O)Nc1ccc(C)c(S(=O)(=O)N(C)C)c1

6.4
10.8
52.7
35.3
